pIC50 values, listed per item
ASSAYED_SYSTEM: human ETA receptor (Homo sapiens)
Construct: CHO cell stably over-expressing the full length human ETA receptor
Sequence (P25101 21-427): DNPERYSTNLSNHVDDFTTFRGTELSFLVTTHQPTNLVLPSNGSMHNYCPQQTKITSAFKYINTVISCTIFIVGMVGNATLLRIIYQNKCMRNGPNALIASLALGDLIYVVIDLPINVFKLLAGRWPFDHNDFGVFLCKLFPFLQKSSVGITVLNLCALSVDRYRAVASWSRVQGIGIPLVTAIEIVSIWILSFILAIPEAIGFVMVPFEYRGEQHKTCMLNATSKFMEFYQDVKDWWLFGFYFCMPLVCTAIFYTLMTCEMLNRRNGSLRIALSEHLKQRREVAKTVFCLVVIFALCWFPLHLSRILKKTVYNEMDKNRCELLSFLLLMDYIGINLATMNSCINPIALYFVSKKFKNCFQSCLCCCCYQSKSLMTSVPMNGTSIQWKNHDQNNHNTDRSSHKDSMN
ASSAY_REMARKS: ETA functional assay (FLIPR Ca efflux, Endothelin-1 at EC80)
CONDITIONS_USED: CHO cells over-expressing full length human ETA receptor; Endothelin-1 as agonist at EC80
pIC50: −log10 of the molar value.
READOUT_NAME: pIC50

- COMPOUND: "CCc1cc2c(ccc(=O)n2Cc2ccc(-c3cc(C)sc3S(=O)(=O)Nc3noc(C)c3C)c(F)c2)c(CC)n1 [Example 35]"
  READOUT_NAME: "pIC50"
  MEAS_VALUE: 5.59
- COMPOUND: "CCOCc1cc(Cn2nc(-c3ccc(OC)cc3)c3c(C)nc(CC)cc32)ccc1-c1cc(C)sc1S(=O)(=O)Nc1noc(C)c1C [Example 23]"
  READOUT_NAME: "pIC50"
  MEAS_VALUE: 6.61
- COMPOUND: "CCOc1nc2cccc(C(=O)O)c2n1Cc1ccc(-c2cc(C)sc2S(=O)(=O)Nc2onc(C)c2C)cc1 [Example 26]"
  READOUT_NAME: "pIC50"
  MEAS_VALUE: 4.72
- COMPOUND: "CCc1cc2c(ccc(=O)n2Cc2ccc(-c3cc(C)sc3S(=O)(=O)Nc3noc(C)c3C)cc2)c(CC)n1 [Example 7]"
  READOUT_NAME: "pIC50"
  MEAS_VALUE: 6.09
- COMPOUND: "CCOCc1cc(Cn2nc(C)c3c(C)nc(CC)cc32)ccc1-c1cc(C)sc1S(=O)(=O)Nc1noc(C)c1C [Example 6]"
  READOUT_NAME: "pIC50"
  MEAS_VALUE: 6.25
- COMPOUND: "CCc1cc2c(ccc(=O)n2Cc2ccc(-c3cc(C)sc3S(=O)(=O)Nc3onc(C)c3C)c(C)c2)c(CC)n1 [Example 30]"
  READOUT_NAME: "pIC50"
  MEAS_VALUE: 5.48
- COMPOUND: "COCc1cc(Cn2nc(-c3cccs3)c3c(C)nc(C)cc32)ccc1-c1cc(C)sc1S(=O)(=O)Nc1noc(C)c1C [Example 21]"
  READOUT_NAME: "pIC50"
  MEAS_VALUE: 6.33
- COMPOUND: "CCc1cc(OCc2ccc(-c3ccsc3S(=O)(=O)Nc3noc(C)c3C)cc2)c(C(=O)c2ccccc2)c(C)n1 [Example 4]"
  READOUT_NAME: "pIC50"
  MEAS_VALUE: 5.21
- COMPOUND: "Cc1cc2c(cc(-c3ccccc3)c(=O)n2Cc2ccc(-c3cc(C)sc3S(=O)(=O)Nc3noc(C)c3C)c(C)c2)c(C)n1 [Example 29]"
  READOUT_NAME: "pIC50"
  MEAS_VALUE: 6.53
- COMPOUND: "CCc1cc2c(c(C)n1)c(-c1ccccc1)nn2Cc1ccc(-c2ccsc2S(=O)(=O)Nc2ncc(C)nc2OC)cc1 [Example 34]"
  READOUT_NAME: "pIC50"
  MEAS_VALUE: 5.15
- COMPOUND: "CCOCc1cc(Cn2nc(-c3cccs3)c3c(C)nc(CC)cc32)ccc1-c1cc(C)sc1S(=O)(=O)Nc1noc(C)c1C [Example 22]"
  READOUT_NAME: "pIC50"
  MEAS_VALUE: 6.34
- COMPOUND: "Cc1cc2c(ccc(=O)n2Cc2ccc(-c3cc(C)sc3S(=O)(=O)Nc3noc(C)c3C)c(OCC(C)C)c2)c(C)n1 [Example 36]"
  READOUT_NAME: "pIC50"
  MEAS_VALUE: 6.12
- COMPOUND: "Cc1cc2c(c(C)n1)c(-c1ccccc1)nn2Cc1ccc(-c2cc(C)sc2S(=O)(=O)Nc2noc(C)c2C)c(C)c1 [Example 18]"
  READOUT_NAME: "pIC50"
  MEAS_VALUE: 5.84
- COMPOUND: "CCOCc1cc(Cn2nc(Cn3nc(C)cc3C)c3c(C)nc(C)cc32)ccc1-c1cc(C)sc1S(=O)(=O)Nc1noc(C)c1C [Example 15]"
  READOUT_NAME: "pIC50"
  MEAS_VALUE: 6.30
- COMPOUND: "Cc1cc2c(c(C)n1)c(-c1ccc(Cl)cc1)nn2Cc1ccc(-c2cc(C)sc2S(=O)(=O)Nc2noc(C)c2C)c(C)c1 [Example 37]"
  READOUT_NAME: "pIC50"
  MEAS_VALUE: 6.39
- COMPOUND: "CCc1cc2c(c(Oc3ccccc3)cc(=O)n2Cc2ccc(-c3ccsc3S(=O)(=O)Nc3noc(C)c3C)cc2)c(CC)n1 [Example 8]"
  READOUT_NAME: "pIC50"
  MEAS_VALUE: 5.54
- COMPOUND: "CCc1nc(C)cc2c1c(CC)nn2Cc1ccc(-c2cc(C)sc2S(=O)(=O)Nc2noc(C)c2C)c(COC)c1 [Example 38]"
  READOUT_NAME: "pIC50"
  MEAS_VALUE: 5.98

----------
ASSAYED_SYSTEM: human AT1 receptor (Homo sapiens)
Construct: CHO cell stably over-expressing the full length human AT1 receptor
Sequence (P30556 whole entry): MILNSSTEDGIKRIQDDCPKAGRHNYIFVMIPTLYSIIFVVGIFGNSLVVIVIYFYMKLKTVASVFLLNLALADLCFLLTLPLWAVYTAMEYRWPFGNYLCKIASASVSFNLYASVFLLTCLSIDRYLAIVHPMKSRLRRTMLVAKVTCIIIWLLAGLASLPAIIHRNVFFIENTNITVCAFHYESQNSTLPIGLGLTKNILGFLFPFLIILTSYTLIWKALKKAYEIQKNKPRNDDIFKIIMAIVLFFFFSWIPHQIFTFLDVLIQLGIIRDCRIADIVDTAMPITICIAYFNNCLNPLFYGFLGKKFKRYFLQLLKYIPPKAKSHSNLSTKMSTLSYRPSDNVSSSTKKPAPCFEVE
ASSAY_REMARKS: AT1 functional assay (FLIPR Ca efflux, Angiotensin-II at EC80)
CONDITIONS_USED: CHO cells over-expressing full length human AT1 receptor; Angiotensin-II as agonist at EC80
Lab note: compare IC50 with 20 nM, writing condition met if less and condition not met if equal or more.

- COMPOUND: "CCc1cc2c(ccc(=O)n2Cc2ccc(-c3cc(C)sc3S(=O)(=O)Nc3noc(C)c3C)cc2)c(CC)n1 [Example 7]"
  ASSAYED_SYSTEM: "human AT1 receptor (Homo sapiens)"
  CLASS: "condition not met"
- COMPOUND: "Cc1cc2c(cc(-c3ccccc3)c(=O)n2Cc2ccc(-c3cc(C)sc3S(=O)(=O)Nc3noc(C)c3C)c(C)c2)c(C)n1 [Example 29]"
  ASSAYED_SYSTEM: "human AT1 receptor (Homo sapiens)"
  CLASS: "condition met"
- COMPOUND: "CCc1cc(OCc2ccc(-c3ccsc3S(=O)(=O)Nc3noc(C)c3C)cc2)c(C(=O)c2ccccc2)c(C)n1 [Example 4]"
  ASSAYED_SYSTEM: "human AT1 receptor (Homo sapiens)"
  CLASS: "condition not met"
- COMPOUND: "Cc1cc2c(c(C)n1)c(-c1ccc(Cl)cc1)nn2Cc1ccc(-c2cc(C)sc2S(=O)(=O)Nc2noc(C)c2C)c(C)c1 [Example 37]"
  ASSAYED_SYSTEM: "human AT1 receptor (Homo sapiens)"
  CLASS: "condition not met"
- COMPOUND: "CCc1cc2c(c(C)n1)c(-c1ccccc1)nn2Cc1ccc(-c2ccsc2S(=O)(=O)Nc2ncc(C)nc2OC)cc1 [Example 34]"
  ASSAYED_SYSTEM: "human AT1 receptor (Homo sapiens)"
  CLASS: "condition not met"
- COMPOUND: "CCOc1nc2cccc(C(=O)O)c2n1Cc1ccc(-c2cc(C)sc2S(=O)(=O)Nc2onc(C)c2C)cc1 [Example 26]"
  ASSAYED_SYSTEM: "human AT1 receptor (Homo sapiens)"
  CLASS: "condition not met"
- COMPOUND: "Cc1cc2c(c(C)n1)c(-c1ccccc1)nn2Cc1ccc(-c2cc(C)sc2S(=O)(=O)Nc2noc(C)c2C)c(C)c1 [Example 18]"
  ASSAYED_SYSTEM: "human AT1 receptor (Homo sapiens)"
  CLASS: "condition met"
- COMPOUND: "CCc1cc2c(c(C)n1)c(-c1ccc(OC)cc1)nn2Cc1ccc(-c2cc(C)sc2S(=O)(=O)Nc2noc(C)c2C)c(C)c1 [Example 24]"
  ASSAYED_SYSTEM: "human AT1 receptor (Homo sapiens)"
  CLASS: "condition not met"
- COMPOUND: "CCOCc1cc(Cn2nc(C)c3c(C)nc(CC)cc32)ccc1-c1cc(C)sc1S(=O)(=O)Nc1noc(C)c1C [Example 6]"
  ASSAYED_SYSTEM: "human AT1 receptor (Homo sapiens)"
  CLASS: "condition not met"
- COMPOUND: "CCc1cc2c(c(Oc3ccccc3)cc(=O)n2Cc2ccc(-c3ccsc3S(=O)(=O)Nc3noc(C)c3C)cc2)c(CC)n1 [Example 8]"
  ASSAYED_SYSTEM: "human AT1 receptor (Homo sapiens)"
  CLASS: "condition not met"
- COMPOUND: "CCc1cc2c(ccc(=O)n2Cc2ccc(-c3cc(C)sc3S(=O)(=O)Nc3onc(C)c3C)c(C)c2)c(CC)n1 [Example 30]"
  ASSAYED_SYSTEM: "human AT1 receptor (Homo sapiens)"
  CLASS: "condition met"
- COMPOUND: "Cc1cc2c(ccc(=O)n2Cc2ccc(-c3cc(C)sc3S(=O)(=O)Nc3noc(C)c3C)c(OCC(C)C)c2)c(C)n1 [Example 36]"
  ASSAYED_SYSTEM: "human AT1 receptor (Homo sapiens)"
  CLASS: "condition not met"
- COMPOUND: "COCc1cc(Cn2nc(-c3cccs3)c3c(C)nc(C)cc32)ccc1-c1cc(C)sc1S(=O)(=O)Nc1noc(C)c1C [Example 21]"
  ASSAYED_SYSTEM: "human AT1 receptor (Homo sapiens)"
  CLASS: "condition met"
- COMPOUND: "CCOCc1cc(Cn2nc(-c3cccs3)c3c(C)nc(CC)cc32)ccc1-c1cc(C)sc1S(=O)(=O)Nc1onc(C)c1C [Example 27]"
  ASSAYED_SYSTEM: "human AT1 receptor (Homo sapiens)"
  CLASS: "condition met"
